- ASSAYED SYSTEM: Macrophage-stimulating protein receptor (Homo sapiens); note: in the data inactive means no Kd found up to 30 µM
- Sequence (Q04912 25-304 limits assumed): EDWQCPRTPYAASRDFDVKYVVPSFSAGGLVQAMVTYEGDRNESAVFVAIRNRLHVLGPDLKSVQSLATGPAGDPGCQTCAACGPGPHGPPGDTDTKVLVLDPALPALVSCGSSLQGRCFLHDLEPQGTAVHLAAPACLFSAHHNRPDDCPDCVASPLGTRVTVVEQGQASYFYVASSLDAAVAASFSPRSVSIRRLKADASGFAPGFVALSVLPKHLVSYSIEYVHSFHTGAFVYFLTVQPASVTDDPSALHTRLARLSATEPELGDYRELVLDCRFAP
- Sequence (Q04912 310-1400 limits assumed): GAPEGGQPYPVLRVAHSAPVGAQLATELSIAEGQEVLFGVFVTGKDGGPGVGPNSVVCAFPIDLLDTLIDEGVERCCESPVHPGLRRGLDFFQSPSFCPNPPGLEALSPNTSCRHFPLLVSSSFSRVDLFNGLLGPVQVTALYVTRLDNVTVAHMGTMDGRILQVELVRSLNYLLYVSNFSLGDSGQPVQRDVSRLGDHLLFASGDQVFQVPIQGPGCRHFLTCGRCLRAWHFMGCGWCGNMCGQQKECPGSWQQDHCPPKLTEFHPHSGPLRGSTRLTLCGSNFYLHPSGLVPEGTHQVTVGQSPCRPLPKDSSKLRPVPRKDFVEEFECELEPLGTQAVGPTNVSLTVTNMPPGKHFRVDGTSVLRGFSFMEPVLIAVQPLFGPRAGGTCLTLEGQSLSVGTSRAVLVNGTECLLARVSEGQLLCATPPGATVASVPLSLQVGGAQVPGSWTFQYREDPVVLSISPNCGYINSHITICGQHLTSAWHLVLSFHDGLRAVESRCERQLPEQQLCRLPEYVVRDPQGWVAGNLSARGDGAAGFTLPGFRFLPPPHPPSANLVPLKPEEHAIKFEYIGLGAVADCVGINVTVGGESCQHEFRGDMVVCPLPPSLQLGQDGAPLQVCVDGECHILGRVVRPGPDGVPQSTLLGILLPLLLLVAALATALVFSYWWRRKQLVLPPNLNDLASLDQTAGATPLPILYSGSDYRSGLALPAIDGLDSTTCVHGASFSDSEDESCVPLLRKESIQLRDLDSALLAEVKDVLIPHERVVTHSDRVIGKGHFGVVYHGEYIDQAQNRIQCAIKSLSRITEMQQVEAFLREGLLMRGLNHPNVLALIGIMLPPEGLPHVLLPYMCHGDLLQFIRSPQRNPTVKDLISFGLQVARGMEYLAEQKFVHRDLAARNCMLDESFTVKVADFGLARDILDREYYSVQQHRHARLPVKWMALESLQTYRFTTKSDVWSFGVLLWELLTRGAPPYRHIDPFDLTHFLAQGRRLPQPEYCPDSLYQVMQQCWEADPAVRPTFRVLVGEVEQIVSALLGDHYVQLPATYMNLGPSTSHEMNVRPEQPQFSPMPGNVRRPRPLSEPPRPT
Active and inactive are the calls of the source.
The reply should be one of these categories: active, inactive

Example results:
Qu. Hi, do you know how C1=C/COCc2cc(ccc2OCCN2CCCC2)Nc2nccc(n2)-c2cccc(c2)COC/1 came out in this test?
Ans. inactive

Qu. Would you mind telling me which call this test gave Cc1ccc(S(=O)(=O)Nc2nc3ccccc3nc2Nc2ccc3nsnc3c2)cc1 ?
Ans. inactive

Qu. Call for entry O=C(Nc1ccc(-c2ccnc(Nc3ccc(N4CCOCC4)cc3)n2)cc1)C1CCCN1 (stereo not drawn) :
Ans. inactive

Qu. So what was the verdict on COc1cc2nccc(Oc3ccc(NC(=O)Nc4cc(C)on4)c(Cl)c3)c2cc1OC in this test?
Ans. inactive

Qu. For this compound, state the assay outcome: Cc1nc(N)sc1-c1ccnc(Nc2ccc(N3CCOCC3)cc2)n1
Ans. active

Qu. Hey, what did the test say about COCCNCc1ccc(-c2cc3nccc(Oc4ccc(NC(=S)NC(=O)Cc5ccc(F)cc5)cc4F)c3s2)nc1 ?
Ans. active

***
Qu. What did this assay record as the result for COc1cc(OC)c(/C=C/S(=O)(=O)Cc2ccc(OC)c(NCC(=O)O)c2)c(OC)c1 ?
Ans. inactive

Qu. Tell me the assay call for Cn1ncc(Cl)c1-c1cc(C(=O)N[C@H](CN)Cc2cccc(F)c2)sc1Cl please.
Ans. inactive
